Origin of measurements: the supplement of paper PMC3334620

TESTED_TARGET: Cad1 (UniProt P24813)
Sequence: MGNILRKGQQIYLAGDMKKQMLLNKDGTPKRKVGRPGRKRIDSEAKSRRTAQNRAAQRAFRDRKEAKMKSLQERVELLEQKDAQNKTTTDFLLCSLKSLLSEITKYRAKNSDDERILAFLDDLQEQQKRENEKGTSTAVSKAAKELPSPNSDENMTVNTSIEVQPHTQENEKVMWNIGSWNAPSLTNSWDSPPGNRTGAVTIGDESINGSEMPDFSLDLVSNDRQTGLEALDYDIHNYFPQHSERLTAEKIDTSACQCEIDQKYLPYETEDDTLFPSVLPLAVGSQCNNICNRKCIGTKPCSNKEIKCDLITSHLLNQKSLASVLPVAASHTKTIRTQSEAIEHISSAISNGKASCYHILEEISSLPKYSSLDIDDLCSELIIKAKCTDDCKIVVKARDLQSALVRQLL
EXPERIMENTAL_PROTOCOL: PBM E-score (8-mer binding enrichment) (E-score (-0.5 to 0.5)); higher = stronger / more preferred TF binding
RUN_CONDITIONS: protein concentration: 100 nM; construct: GST-full length
Over roughly 33,000 sequences, “E-score (-0.5 to 0.5)” has its median near -0.0014; the highest 2% begin near 0.25. The full list was thinned out, with the highest values kept by preference.
Returns one of rule met or rule not met; rule met when PBM E-score is >= 0.05.

See these solved cases before continuing.
SEQUENCE_ENTRY | QUALITATIVE_LABEL
AGTCGACG | rule met
GGAACTAC | rule not met
AAAATGGG | rule not met

Inquiry: Answer whether PBM E-score of AGCGGCTC is greater than or equal to 0.05.
Reply text: rule not met

Inquiry: Answer whether PBM E-score of AGGATCCC is greater than or equal to 0.05.
Reply text: rule not met

Inquiry: Answer whether PBM E-score of CCAAATAC is greater than or equal to 0.05.
Reply text: rule not met

Inquiry: Answer whether PBM E-score of GAAATTAC is greater than or equal to 0.05.
Reply text: rule met

Inquiry: Answer whether PBM E-score of CGTCGACC is greater than or equal to 0.05.
Reply text: rule met

Inquiry: Answer whether PBM E-score of ACAAATAG is greater than or equal to 0.05.
Reply text: rule met

Inquiry: Answer whether PBM E-score of ATAAATAC is greater than or equal to 0.05.
Reply text: rule met
